Experimental System: LK35.2-hPD-L1 cells / PE-labeled PD-1-Ig (Homo sapiens, UniProt Q9NZQ7)
Construct: expressed in transfected cells; host or cells: LK35.2 mouse B cell line
Sequence (Q9NZQ7 19-290): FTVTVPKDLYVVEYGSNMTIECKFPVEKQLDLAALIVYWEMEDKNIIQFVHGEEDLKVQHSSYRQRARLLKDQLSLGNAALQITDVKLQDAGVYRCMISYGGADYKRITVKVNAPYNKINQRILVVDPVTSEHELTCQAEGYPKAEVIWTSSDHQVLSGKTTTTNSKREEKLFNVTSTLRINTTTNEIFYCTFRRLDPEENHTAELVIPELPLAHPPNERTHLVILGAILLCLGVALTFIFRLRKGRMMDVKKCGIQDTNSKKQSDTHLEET
Experiment: LK35.2-hPD-L1 cell binding high-content screening assay
Assay type: cell-based
Test Context: cluster symbol; cell line of CBA not given (LK35.2-hPD-L1 or 293T-hPD-L1); read-out: CBA IC50 cluster
Positions of bridges follow the written chain, without caps; N, C: chain ends. Non-standard residues stand in square brackets, D forms with d. Residues, ends and D or L forms follow the SMILES beside them. ξ: configuration not given here. Phe(F5) = N[C@@H](Cc1c(F)c(F)c(F)c(F)c1F)C(=O)O; Phe(4-CH2NH2) = NCc1ccc(C[C@H](N)C(=O)O)cc1; Phe(4-F) = N[C@@H](Cc1ccc(F)cc1)C(=O)O; Bta = N[C@@H](Cc1csc2ccccc12)C(=O)O; NMeF = CN[C@@H](Cc1ccccc1)C(=O)O; dNMeNle = CCCC[C@@H](NC)C(=O)O; NMeNle = CCCC[C@H](NC)C(=O)O; NMeA = CN[C@@H](C)C(=O)O; dDap = NC[C@@H](N)C(=O)O; Dab = NCC[C@H](N)C(=O)O; ξP = O=C(O)C1CCCN1; Sar = CNCC(=O)O
Measured Attribute: IC50

Answered examples (4):
{"columns": ["Compound", "IC50"],
 "data": [
  ["CCCC[C@H]1C(=O)N(C)CC(=O)N[C@@H](CC(=O)O)C(=O)N[C@@H](C(C)C)C(=O)N(C)[C@@H](Cc2ccccc2)C(=O)N[C@@H](Cc2ccc(CN)cc2)C(=O)N(C)CC(=O)N[C@@H](Cc2csc3ccccc23)C(=O)N[C@@H](Cc2ccc(O)cc2)C(=O)N[C@@H](CC(C)C)C(=O)N[C@H](C(=O)NCC(N)=O)CSCC(=O)N[C@@H](Cc2ccc(F)cc2)C(=O)N(C)[C@@H](Cc2ccccc2)C(=O)N1C [Example 3120] ({CH2CO}-[Phe(4-F)][NMeF][NMeNle][Sar]DV[NMeF][Phe(4-CH2NH2)][Sar][Bta]YLCG-NH2; thioether N-13)", "0.158 to 4.71 nM"],
  ["CCCC[C@H]1C(=O)N(C)[C@@H](CCCC)C(=O)N[C@@H](CC(=O)O)C(=O)N[C@H](C(=O)NCC(N)=O)CSCC(=O)N[C@@H](Cc2ccccc2)C(=O)N(C)[C@@H](C)C(=O)N[C@@H](CC(=O)O)C(=O)N2CCC[C@H]2C(=O)N[C@@H](Cc2cnc[nH]2)C(=O)N[C@@H](CCCNC(=N)N)C(=O)N(C)CC(=O)N[C@@H](Cc2c[nH]c3ccccc23)C(=O)N[C@@H](CCCNC(=N)N)C(=O)N[C@@H](Cc2c[nH]c3ccccc23)C(=O)N1C [Example 1056] ({CH2CO}-F[NMeA]DPHR[Sar]WRW[NMeNle][NMeNle]DCG-NH2; thioether N-14)", "4.78 to 72.9 nM"],
  ["CCCC[C@@H]1C(=O)N(C)[C@H](CCCC)C(=O)N[C@@H](C)C(=O)N[C@@H](C(=O)NCC(N)=O)CSCC(=O)N[C@@H](Cc2ccc(O)cc2)C(=O)N2CCCC2C(=O)N[C@H](CC(N)=O)C(=O)N2CCC[C@H]2C(=O)N[C@H](CN)C(=O)N[C@@H](CCC(N)=O)C(=O)N2CCCC2C(=O)N[C@H](Cc2c[nH]c3ccccc23)C(=O)N[C@@H](CCN)C(=O)N[C@@H](Cc2c[nH]c3ccccc23)C(=O)N1C (some centres unmarked) [Example 1211] ({CH2CO}-Y[ξP][dN]P[dDap]Q[ξP][dW][Dab]W[dNMeNle][dNMeNle]A[dC]G-NH2; thioether N-14)", "> 74.3 nM"],
  ["CCCC[C@H]1C(=O)N(C)CC(=O)N[C@@H](CC(=O)O)C(=O)N[C@@H](C(C)C)C(=O)N(C)[C@@H](Cc2ccccc2)C(=O)N[C@@H](Cc2ccc(O)cc2)C(=O)N(C)CC(=O)N[C@@H](Cc2c[nH]c3ccccc23)C(=O)N[C@@H](Cc2ccc(O)cc2)C(=O)N[C@@H](CC(C)C)C(=O)N[C@H](C(=O)NCC(N)=O)CSCC(=O)N[C@@H](Cc2c(F)c(F)c(F)c(F)c2F)C(=O)N(C)[C@@H](Cc2ccccc2)C(=O)N1C [Example 3078] ({CH2CO}-[Phe(F5)][NMeF][NMeNle][Sar]DV[NMeF]Y[Sar]WYLCG-NH2; thioether N-13)", "> 74.3 nM"]
]}

// field: IC50; key: CCCC[C@H]1C(=O)N(C)[C@@H](CCCC)C(=O)N[C@@H](CCCNC(=N)N)C(=O)N[C@H](C(=O)NCC(N)=O)CSCC(=O)N[C@@H](Cc2ccccc2)C(=O)N(C)[C@@H](C)C(=O)N[C@@H](CC(N)=O)C(=O)N2CCC[C@H]2C(=O)N[C@@H](Cc2cnc[nH]2)C(=O)N[C@@H](CC(C)C)C(=O)NC(C)(C)C(=O)N[C@@H](Cc2c[nH]c3ccccc23)C(=O)N[C@@H](CO)C(=O)N[C@@H](Cc2c[nH]c3ccccc23)C(=O)N1C ; value = > 74.3 nM
